// reported Plant response rating, Cocklebur for each item listed
Tested on: cocklebur (Xanthium strumarium)
Experiment: Test B pre/postemergence
Format: in vivo
Settings: Postemergence, 500 g ai/ha; scale 0 to 100

Compound | Plant response rating, Cocklebur
COCc1nc(C2CC2)nc(N)c1Br | 90
CN(C)N=Cc1nc(C2CC2)nc(N)c1Br | 90
CNN=Cc1nc(C2CC2)nc(N)c1Br | 100
CCOC(=O)c1nc(C2CC2)nc(NNC(C)=O)c1Br | 0
COC(=O)c1nc(-c2ccc(C(F)(F)F)cc2)nc(N)c1Cl | 100
CCCCOC(=O)c1nc(C2CC2)nc(N)c1Br | 100
CCOC(=O)C(Cl)c1nc(C2CC2)nc(N)c1Br (centres unmarked) | 80
CCCOC(=O)c1nc(C2CC2)nc(N)c1Br | 100
CCOC(=O)C(C)c1nc(C2CC2)nc(N)c1Br (centres unmarked) | 90
COC(=O)CNc1nc(C2CC2)nc(C(=O)OC)c1Br | 70
COC(=O)c1nc(C2CC2)nc(N=CN(C)C)c1Br | 100

====

// reported Plant response rating, Ducksalad for each item listed
Tested on: duck salad (Heteranthera limosa)
Assay: Test C flooded paddy test
Type: in vivo
Details: Flood, 250 g ai/ha; scale 0 to 100
Test Readout: Plant response rating, Ducksalad

Compound | Test Readout | Result
COC(=O)c1nc(C2CC2)nc(N=CN(C)C)c1Br [Compound 19] | Plant response rating, Ducksalad | 60
COC(=O)c1nc(C2CC2)nc(N)c1Cl [Compound 9] | Plant response rating, Ducksalad | 80
CNc1nc(C2CC2)nc(C(=O)OC)c1Br [Compound 5] | Plant response rating, Ducksalad | 0
CC(C)COC(=O)c1nc(C2CC2)nc(N)c1Br [Compound 17] | Plant response rating, Ducksalad | 80
CCOC(=O)c1nc(-c2ccc(Cl)cc2)nc(N)c1Br [Compound 37] | Plant response rating, Ducksalad | 100
CCCCOC(=O)c1nc(C2CC2)nc(N)c1Br [Compound 16] | Plant response rating, Ducksalad | 75
CCCOC(=O)c1nc(C2CC2)nc(N)c1Br [Compound 15] | Plant response rating, Ducksalad | 50

====

Test system: duck salad (Heteranthera limosa)
Assay: Test B flooded paddy test
Assay type: in vivo
Conditions: Flood, 500 g ai/ha; scale 0 to 100
// reported Plant response rating, Ducksalad for each item listed

Given Smiles | Plant response rating, Ducksalad
Nc1nc(C2CC2)nc(C(=O)OCc2ccc(Cl)cc2)c1Cl | 70
COC(=O)c1nc(-c2ccc(I)cc2)nc(N)c1Br | 100
Nc1nc(C2CC2)nc(C(=O)O)c1Cl | 90
Nc1nc(-c2ccc(Cl)cc2)nc(C(=O)O)c1Br | 90
COC(=O)c1nc(-c2ccc(F)cc2)nc(N)c1Br | 90

====

Test system: woolly cupgrass (Eriochloa villosa)
Experiment: Test C pre/postemergence
Assay type: in vivo
Settings: Postemergence, 62 g ai/ha; scale 0 to 100 (0 no effect, 100 complete control)

Given Smiles | Target Entity | Cupgrass, Woolly plant response rating
CC(C)COC(=O)c1nc(C2CC2)nc(N)c1Br | woolly cupgrass (Eriochloa villosa) | 0
COC(=O)CNc1nc(C2CC2)nc(C(=O)OC)c1Br | woolly cupgrass (Eriochloa villosa) | 0
CC(=O)NN=Cc1nc(C2CC2)nc(N)c1Br | woolly cupgrass (Eriochloa villosa) | 0
Nc1nc(C2CC2)nc(C=NO)c1Br | woolly cupgrass (Eriochloa villosa) | 0
CNN=Cc1nc(C2CC2)nc(N)c1Br | woolly cupgrass (Eriochloa villosa) | 0
COCc1nc(C2CC2)nc(N)c1Br | woolly cupgrass (Eriochloa villosa) | 0

====

System: bermudagrass (Cynodon dactylon)
Test: Test C pre/postemergence
Assay type: in vivo
Settings: Postemergence, 62 g ai/ha; scale 0 to 100 (0 no effect, 100 complete control)
Exam item: assign t to entries whose Bermudagrass plant response rating is below 20 and f to entries at or above 20. Note that a value of exactly 20 receives f.

Compound | Assigned Label
CCCCOC(=O)c1nc(C2CC2)nc(N)c1Br | t
CCOC(=O)C(OC(C)=O)c1nc(C2CC2)nc(N)c1Br (stereo not drawn) | t
CCOC(=O)c1nc(-c2ccc(I)cc2)nc(N)c1Cl | f
CN(C)N=Cc1nc(C2CC2)nc(N)c1Br | f
CCCCOC(=O)c1nc(C2CC2)nc(N)c1Cl | f

====

Test system: bearded (brdd.) sprangletop (Leptochloa fusca ssp. fascicularis)
Assay: Test E flooded paddy water application
Assay type: in vivo
Conditions: 250 g ai/ha; Flood; 21 days; scale 0 to 100 (0 no effect, 100 complete control)

Molecule | Sprangletop, Brdd. plant response rating
COC(=O)c1nc(-c2ccc(C)cc2)nc(N)c1Cl [Compound 84] | 40
CCOC(=O)c1nc(-c2ccc(C)cc2)nc(N)c1Br [Compound 61] | 65
COC(=O)c1nc(-c2ccc(C(F)(F)F)cc2)nc(N)c1Cl [Compound 44] | 50

====

// reported Plant response rating, Barnyardgrass for each item listed
System: barnyardgrass (Echinochloa crus-galli)
Assay: Test A pre/postemergence
Assay type: in vivo
Settings: Postemergence, 500 g ai/ha; 0 to 100 scale (0 no effect, 100 complete control)

Given Smiles | Plant response rating, Barnyardgrass
COC(=O)c1nc(-c2cccc(C)c2)nc(N)c1Cl | 10
Nc1nc(C2CC2)nc(C(=O)OCc2ccc(Cl)cc2)c1Cl | 90
CCOC(=O)c1nc(-c2ccc(C)c(C)c2)nc(N)c1Br | 0
CCOC(=O)c1nc(-c2cccc(Cl)c2)nc(N)c1Cl | 10
Nc1nc(-c2ccc(Br)cc2)nc(C(=O)O)c1Br | 80
CC(C)OC(=O)c1nc(-c2ccc(Cl)cc2)nc(N)c1Cl | 0
COC(=O)COc1nc(-c2ccc(Cl)cc2)nc(N)c1Cl | 5
CCOC(=O)c1nc(-c2ccc(Cl)cc2Cl)nc(N)c1Cl | 0
CCOC(OCC)c1nc(-c2ccc(I)cc2)nc(N)c1Cl | 0
COC(=O)c1nc(-c2ccc(Br)cc2)nc(N)c1Br | 0

====

Tested on: velvetleaf (Abutilon theophrasti)
Assay: Test C pre/postemergence
Type: in vivo
Settings: Abutilon theophrasti, post-emergence, Postemergence, 125 g ai/ha; scale 0 to 100 (0 no effect, 100 complete control); read-out: Velvetleaf plant response rating
// reported pest or weed control at 125 g/ha for each item listed
Test Readout: pest or weed control at 125 g/ha (%)

Given Smiles | Unit Of Measure | Numeric Readout
Nc1nc(C2CC2)nc(C(=O)O)c1Br | % | 70
CCOC(=O)c1nc(C2CC2)nc(N)c1Cl | % | 100
CCOC(=O)c1nc(C2CC2)nc(N)c1F | % | 60
COC(=O)c1nc(C2CC2)nc(N)c1F | % | 45

====

// reported Redstem plant response rating for each item listed
Test system: purple redstem (Ammannia coccinea)
Assay: Test E flooded paddy water application
Format: in vivo
Settings: 64 g ai/ha; Flood; 21 days; scale 0 to 100 (0 no effect, 100 complete control)

Molecule | Target Entity | Redstem plant response rating
Nc1nc(-c2ccc(Cl)cc2)nc(C(=O)[O-])c1Cl.[Na+] [Compound 117] | purple redstem (Ammannia coccinea) | 0
CCOC(=O)c1nc(-c2ccc(Cl)cc2Cl)nc(N)c1Br [Compound 67] | purple redstem (Ammannia coccinea) | 0
CCOC(=O)c1nc(-c2ccc(F)cc2)nc(N)c1Br [Compound 63] | purple redstem (Ammannia coccinea) | 65
COC(=O)c1nc(-c2ccc(C)cc2)nc(N)c1Cl [Compound 84] | purple redstem (Ammannia coccinea) | 20
CCOC(=O)c1nc(-c2ccc(OC)cc2)nc(N)c1Cl [Compound 98] | purple redstem (Ammannia coccinea) | 0

====

System: kochia (Kochia scoparia)
Test: Test C pre/postemergence
Type: in vivo
Settings: Preemergence, 125 g ai/ha; scale 0 to 100
// reported Plant response rating, Kochia for each item listed
Test Readout: Plant response rating, Kochia

Compound | Numeric Readout
CCCCOC(=O)c1nc(C2CC2)nc(N)c1Cl | 100
CCOC(=O)Cc1nc(C2CC2)nc(N)c1Br | 50
COC(=O)c1nc(C2CC2)nc(N=CN(C)C)c1Br | 90
CCCCOC(=O)c1nc(C2CC2)nc(N)c1Br | 100
CC(C)COC(=O)c1nc(C2CC2)nc(N)c1Br | 25
COC(=O)Cc1nc(C2CC2)nc(N)c1Br | 80
CCCOC(=O)c1nc(C2CC2)nc(N)c1Br | 100
Nc1nc(-c2ccc(Cl)cc2)nc(C(=O)[O-])c1Cl.[Na+] | 60
CCOC(=O)C(OC(C)=O)c1nc(C2CC2)nc(N)c1Br (stereo not drawn) | 100

====

Test system: redroot pigweed (Amaranthus retroflexus)
Test: Test A pre/postemergence
Type: in vivo
Settings: Postemergence, 125 g ai/ha; 0 to 100 scale (0 no effect, 100 complete control)

Given Smiles | Plant response rating, Pigweed
Nc1nc(-c2ccc(Br)cc2)nc(C(=O)O)c1Br | 85
COC(=O)c1nc(-c2ccc(F)cc2)nc(N)c1Br | 35
COC(=O)COc1nc(C2CC2)nc(N)c1Cl | 20
CC(C)=NOC(=O)c1nc(C2CC2)nc(N)c1Cl | 90
